testedOn: Neurotensin receptor type 1 (Homo sapiens, UniProt P30989)
Sequence (P30989 whole entry): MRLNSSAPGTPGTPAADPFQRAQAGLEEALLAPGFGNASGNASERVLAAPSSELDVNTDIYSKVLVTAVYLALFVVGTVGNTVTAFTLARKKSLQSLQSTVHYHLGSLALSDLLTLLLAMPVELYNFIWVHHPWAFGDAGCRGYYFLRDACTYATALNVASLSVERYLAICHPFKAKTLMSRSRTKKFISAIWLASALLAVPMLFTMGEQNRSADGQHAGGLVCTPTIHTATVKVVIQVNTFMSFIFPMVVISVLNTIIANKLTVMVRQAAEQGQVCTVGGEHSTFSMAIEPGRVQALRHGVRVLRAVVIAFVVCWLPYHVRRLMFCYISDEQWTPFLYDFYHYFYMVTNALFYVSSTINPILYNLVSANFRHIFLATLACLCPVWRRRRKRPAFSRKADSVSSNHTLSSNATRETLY
assayOverview: Agonist activity at NTR1 (unknown origin) expressed in human U2OS cells coexpressing beta-arrestin by GFP reporter gene assay
Type: cell-based
Entries and their log10 of EC50
Hi team, quick reminder: these entries are log10 of EC50 (µM).

Example entries and their recorded answers appear below.
- smilesEntry: "COc1cc2nc(C3CCC3)nc(N3CCN(c4ccccc4Cl)CC3)c2cc1OC"
  log10 of EC50: 1.08
- smilesEntry: "COc1cc2nc(C3CCC3)nc(N3CCN(c4ccccc4F)CC3)c2cc1OC"
  log10 of EC50: 1.26
- smilesEntry: "CCCc1nc(N2CCN(c3ccccc3OC)CC2)c2cc(OC)c(OC)cc2n1"
  log10 of EC50: 1.23
- smilesEntry: "COc1ccccc1N1CCN(c2nc(C3CCC3)nc3ccccc23)CC1"
  log10 of EC50: 1.36

Value wanted: log10 of EC50 (Neurotensin receptor type 1 (Homo sapiens, UniProt P30989)) of entry COc1cccc(OC)c1-c1cc(C(=O)N[C@@H](CC(C)C)C(=O)O)nn1-c1ccnc2cc(Cl)ccc12
-0.12

Value wanted: log10 of EC50 (Neurotensin receptor type 1 (Homo sapiens, UniProt P30989)) of entry COc1cc2nc(Cc3ccccc3)nc(N3CCN(c4ccccc4OC)CC3)c2cc1OC
1.15

* * *

testedOn: Neurotensin receptor type 1 (Homo sapiens, UniProt P30989)
assayOverview: Agonist activity at NTR1 (unknown origin) expressed in CHOK1 cells by beta-arrestin assay
Assay type: cell-based, CHO-K1
measuredQuantity: EC50

Return reported EC50; argument: COc1cccc(OC)c1-c1cc(C(=O)N[C@@H](CC(C)C)C(=O)O)nn1-c1ccnc2cc(Cl)ccc12
> 33 µM

* * *

testedOn: Neurotensin receptor type 2 (Homo sapiens, UniProt O95665)
Sequence (O95665 whole entry): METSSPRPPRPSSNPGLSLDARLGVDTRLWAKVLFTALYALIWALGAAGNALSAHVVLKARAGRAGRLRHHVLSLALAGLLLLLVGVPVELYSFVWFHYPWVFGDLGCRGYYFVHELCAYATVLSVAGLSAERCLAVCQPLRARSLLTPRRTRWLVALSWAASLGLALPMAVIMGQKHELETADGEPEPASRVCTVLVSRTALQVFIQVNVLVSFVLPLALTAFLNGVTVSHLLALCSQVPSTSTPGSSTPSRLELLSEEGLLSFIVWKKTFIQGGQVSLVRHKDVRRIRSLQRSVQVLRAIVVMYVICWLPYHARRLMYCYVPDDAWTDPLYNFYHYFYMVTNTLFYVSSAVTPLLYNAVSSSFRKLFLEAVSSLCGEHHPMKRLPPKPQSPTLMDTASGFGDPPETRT
assayOverview: Agonist activity at NTR2 (unknown origin) expressed in human U2OS cells coexpressing beta-arrestin by GFP reporter gene assay
Entries and their EC50

Example entries and their recorded answers appear below.
- smilesEntry: "COc1cc2nc(C3CCC3)nc(N3CCN(c4ccccc4C)CC3)c2cc1OC"
  EC50: "> 80 µM"
- smilesEntry: "COc1cc2nc(C3CC3)nc(N3CCN(S(=O)(=O)c4ccccc4)CC3)c2cc1OC"
  EC50: "> 80 µM"
- smilesEntry: "CCOc1cc2c(N3CCN(c4ccccc4F)CC3)nc(-c3ccccc3)nc2cc1OC"
  EC50: "> 80 µM"

Return reported EC50; argument: COc1cc2nc(C3CC3)nc(N3CCN(c4ccccc4OC)CC3)c2cc1OC
> 80 µM

Return reported EC50; argument: CCOc1cc2c(N3CCN(c4ccccc4)CC3)nc(-c3ccccc3)nc2cc1OC
> 80 µM

Return reported EC50; argument: COc1cc2nc(C3CC3)nc(N3CCN(C(=O)c4ccccc4OC)CC3)c2cc1OC
> 80 µM

Return reported EC50; argument: CCOc1ccccc1N1CCN(c2nc(C3CC3)nc3cc(OC)c(OC)cc23)CC1
> 80 µM

Return reported EC50; argument: COc1ccccc1N1CCN(c2nc(C3CCC3)nc3cc4c(cc23)OCO4)CC1
> 80 µM

Return reported EC50; argument: COc1cc2nc(-c3ccccc3)nc(N3CCN(c4ccccc4)CC3)c2cc1OC
> 80 µM
